Test system: HepG2
Assay Overview: Cytotoxicity against human HepG2 cells incubated for 24 hrs by MTT assay
Assay type: functional, cell-based
Measurement Setup: HepG2, 24 h
pIC50: −log10 of the molar value.

Smiles Data: CCNc1nc(N2CCOCC2)nc2ncn(Cc3ccc4ccccc4n3)c12
Assay System: HepG2
Comparator: =
pIC50: 4.02

Smiles Data: CCSc1nc(N2CCOCC2)nc2ncn(Cc3ccc4ccccc4c3)c12
Assay System: HepG2
Comparator: =
pIC50: 4.19

Smiles Data: c1ccc2cc(Cn3cnc4nc(N5CCOCC5)nc(NC5CCC5)c43)ccc2c1
Assay System: HepG2
Comparator: =
pIC50: 4.48

Smiles Data: Clc1nc(N2CCOCC2)nc2ncn(Cc3ccc4ccccc4c3)c12
Assay System: HepG2
Comparator: =
pIC50: 4.18

Smiles Data: c1ccc2cc(Cn3cnc4nc(N5CCOCC5)nc(NC5CCCCC5)c43)ccc2c1
Assay System: HepG2
Comparator: =
pIC50: 4.72

Smiles Data: c1ccc(CNc2nc(N3CCOCC3)nc3ncn(Cc4ccc5ccccc5c4)c23)cc1
Assay System: HepG2
Comparator: =
pIC50: 4.47

Smiles Data: CCCCNc1nc(N2CCOCC2)nc2ncn(Cc3ccc4ccccc4c3)c12
Assay System: HepG2
Comparator: =
pIC50: 4.51

Smiles Data: CCCNc1nc(N2CCOCC2)nc2ncn(Cc3ccc4ccccc4c3)c12
Assay System: HepG2
Comparator: =
pIC50: 4.39

Smiles Data: O=c1[nH]c(N2CCOCC2)nc2ncn(Cc3ccc4ccccc4c3)c12
Assay System: HepG2
Comparator: <
pIC50: 3.90

Smiles Data: CC(C)c1ccc(Cn2cnc3nc(N4CCOCC4)[nH]c(=O)c32)cc1
Assay System: HepG2
Comparator: <
pIC50: 3.90

###

Reported MIC99 is given for each of the following compounds.
Test system: Mycobacterium tuberculosis
Assay Overview: Antimycobacterial activity against MDR clinical isolate Mycobacterium tuberculosis 8666/2010 assessed as inhibition of mycobacterial growth measured after 14 to 21 days of incubation by Sulas semisynthetic medium based assay
Assay type: functional
Measurement Setup: time 14-21 day
Readout Name: MIC99 (µM)

Smiles Data: c1ccc(CNc2nc(N3CCOCC3)nc3ncn(Cc4ccc5ccccc5c4)c23)cc1
Readout Name: MIC99
Units Symbol: µM
Result Value: 4
//
Smiles Data: O=c1[nH]c(N2CCCCC2)nc2ncn(Cc3ccc4ccccc4c3)c12
Readout Name: MIC99
Units Symbol: µM
Result Value: 8
//
Smiles Data: COc1nc(N2CCOCC2)nc2ncn(Cc3ccc4ccccc4c3)c12
Readout Name: MIC99
Units Symbol: µM
Result Value: 8
//
Smiles Data: c1ccc2cc(Cn3cnc4nc(N5CCOCC5)nc(NC5CCC5)c43)ccc2c1
Readout Name: MIC99
Units Symbol: µM
Result Value: 4
//
Smiles Data: O=c1[nH]c(N2CCOCC2)nc2ncn(Cc3ccc4ccccc4c3)c12
Readout Name: MIC99
Units Symbol: µM
Result Value: 32
//
Smiles Data: CCNc1nc(N2CCOCC2)nc2ncn(Cc3ccc4ccccc4c3)c12
Readout Name: MIC99
Units Symbol: µM
Result Value: 2
//
Smiles Data: O=c1[nH]c(N2CCSCC2)nc2ncn(Cc3ccc4ccccc4c3)c12
Readout Name: MIC99
Units Symbol: µM
Result Value: 8
//
Smiles Data: Nc1nc(N2CCOCC2)nc2ncn(Cc3ccc4ccccc4c3)c12
Readout Name: MIC99
Units Symbol: µM
Result Value: 2
//
Smiles Data: CCOc1nc(N2CCOCC2)nc2ncn(Cc3ccc4ccccc4c3)c12
Readout Name: MIC99
Units Symbol: µM
Result Value: 2

###

Test system: Pseudomonas aeruginosa
Assay Overview: Antibacterial activity against multidrug-resistant Pseudomonas aeruginosa A1245 assessed as inhibition of bacterial growth incubated for 24 to 48 hrs by microdilution broth method
Type: functional, organism-based
Measurement Setup: time 24-48 hrs
The source made the active and inactive calls. The calls are words filed in the database; no cut-off is given here.
Readout Name: Activity

Smiles Data: CCSc1nc(N2CCOCC2)nc2ncn(Cc3ccc4ccccc4c3)c12
Result Value: inactive

Smiles Data: COc1nc(N2CCOCC2)nc2ncn(Cc3ccc4ccccc4c3)c12
Result Value: inactive

Smiles Data: CN(C)c1nc(N2CCOCC2)nc2ncn(Cc3ccc4ccccc4c3)c12
Result Value: inactive

Smiles Data: CNc1nc(N2CCOCC2)nc2ncn(Cc3ccc4ccccc4c3)c12
Result Value: inactive

Smiles Data: CCN(CC)c1nc2ncn(Cc3ccc4ccccc4c3)c2c(=O)[nH]1
Result Value: inactive

Smiles Data: CSc1nc(N2CCOCC2)nc2ncn(Cc3ccc4ccccc4c3)c12
Result Value: inactive

Smiles Data: CCOc1nc(N2CCOCC2)nc2ncn(Cc3ccc4ccccc4c3)c12
Result Value: inactive

Smiles Data: O=c1[nH]c(N2CCSCC2)nc2ncn(Cc3ccc4ccccc4c3)c12
Result Value: inactive

Smiles Data: CCNc1nc(N2CCOCC2)nc2ncn(Cc3ccc4cc(F)ccc4c3)c12
Result Value: inactive

Smiles Data: O=c1[nH]c(N2CCOCC2)nc2ncn(Cc3ccc4ccccc4c3)c12
Result Value: inactive

Smiles Data: O=c1[nH]c(N2CCOCC2)nc2ncn(Cc3ccc(Cl)c(Cl)c3)c12
Result Value: inactive

Smiles Data: CCCCNc1nc(N2CCOCC2)nc2ncn(Cc3ccc4ccccc4c3)c12
Result Value: inactive

Smiles Data: CN(c1nc2ncn(Cc3ccc4ccccc4c3)c2c(=O)[nH]1)C1CC1
Result Value: inactive

###

Assay Overview: Stability in human plasma assessed as compound remaining at 1 uM incubated for 15 to 120 mins by LC-MS analysis
Type: ADME, cell-free
Measurement Setup: time 15-120 min, read-out: Stability
Reported values of remaining at 1 µM for individual entries

Smiles Data: O=c1[nH]c(N2CCCCC2)nc2ncn(Cc3ccc4ccccc4c3)c12
remaining at 1 µM (%): 96.7
//
Smiles Data: c1ccc2cc(Cn3cnc4nc(N5CCOCC5)nc(NC5CCC5)c43)ccc2c1
remaining at 1 µM (%): 97.5
//
Smiles Data: CCOc1nc(N2CCOCC2)nc2ncn(Cc3ccc4ccccc4c3)c12
remaining at 1 µM (%): 99.6
//
Smiles Data: O=c1[nH]c(N2CCOCC2)nc2ncn(Cc3ccc4ccccc4c3)c12
remaining at 1 µM (%): 96.6
//
Smiles Data: c1ccc(CNc2nc(N3CCOCC3)nc3ncn(Cc4ccc5ccccc5c4)c23)cc1
remaining at 1 µM (%): 99.2
//
Smiles Data: Nc1nc(N2CCOCC2)nc2ncn(Cc3ccc4ccccc4c3)c12
remaining at 1 µM (%): 103
//
Smiles Data: O=c1[nH]c(N2CCSCC2)nc2ncn(Cc3ccc4ccccc4c3)c12
remaining at 1 µM (%): 98.2
//
Smiles Data: CCNc1nc(N2CCOCC2)nc2ncn(Cc3ccc4ccccc4c3)c12
remaining at 1 µM (%): 95.5

###

System: Mycobacterium tuberculosis
Assay Overview: Antimycobacterial activity against XDR clinical isolate Mycobacterium tuberculosis 234/2005 assessed as inhibition of mycobacterial growth measured after 14 to 21 days of incubation by Sulas semisynthetic medium based assay
Type: functional
Measurement Setup: time 14-21 day

Smiles Data: O=c1[nH]c(N2CCOCC2)nc2ncn(Cc3ccc4ccccc4c3)c12
MIC99 / µM: 32

Smiles Data: O=c1[nH]c(N2CCSCC2)nc2ncn(Cc3ccc4ccccc4c3)c12
MIC99 / µM: 16

Smiles Data: COc1nc(N2CCOCC2)nc2ncn(Cc3ccc4ccccc4c3)c12
MIC99 / µM: 16

Smiles Data: O=c1[nH]c(N2CCCCC2)nc2ncn(Cc3ccc4ccccc4c3)c12
MIC99 / µM: 16

Smiles Data: c1ccc2cc(Cn3cnc4nc(N5CCOCC5)nc(NC5CCC5)c43)ccc2c1
MIC99 / µM: 8

Smiles Data: c1ccc(CNc2nc(N3CCOCC3)nc3ncn(Cc4ccc5ccccc5c4)c23)cc1
MIC99 / µM: 4

###

Test system: Pseudomonas aeruginosa
Assay Overview: Antibacterial activity against multidrug-resistant Pseudomonas aeruginosa A1245 assessed as inhibition of bacterial growth incubated for 24 to 48 hrs by microdilution broth method
Type: functional, organism-based
Measurement Setup: time 24-48 hrs
Calls of active or inactive are those of the source. The calls are words filed in the database; no cut-off is given here.

Smiles Data: Clc1nc(N2CCOCC2)nc2ncn(Cc3ccc4ccccc4c3)c12
Activity: inactive

Smiles Data: c1ccc2cc(Cn3cnc4nc(N5CCOCC5)nc(NC5CCC5)c43)ccc2c1
Activity: inactive

Smiles Data: c1ccc2cc(Cn3cnc4nc(N5CCOCC5)nc(NC5CCCCC5)c43)ccc2c1
Activity: inactive

Smiles Data: Nc1nc(N2CCOCC2)nc2ncn(Cc3ccc4ccccc4c3)c12
Activity: inactive

Smiles Data: c1ccc(CNc2nc(N3CCOCC3)nc3ncn(Cc4ccc5ccccc5c4)c23)cc1
Activity: inactive

Smiles Data: CCCNc1nc(N2CCOCC2)nc2ncn(Cc3ccc4ccccc4c3)c12
Activity: inactive

Smiles Data: O=c1[nH]c(N2CCCCC2)nc2ncn(Cc3ccc4ccccc4c3)c12
Activity: inactive

Smiles Data: CC(C)c1ccc(Cn2cnc3nc(N4CCOCC4)[nH]c(=O)c32)cc1
Activity: inactive

Smiles Data: CCNc1nc(N2CCOCC2)nc2ncn(Cc3ccc4ccccc4n3)c12
Activity: inactive

Smiles Data: CCNc1nc(N2CCOCC2)nc2ncn(Cc3ccc4ccccc4c3)c12
Activity: inactive
